Overview of reported viability across a group of compounds:
- experimental.setup: cell viability/%
Where a SMILES comes first, the peptide text is derived from it. [ ]: non-standard residue; d: D form. The star is where a group is joined. NHCH2CH2OH = OCCN*; For = O=C*
State just the number; it will be interpreted in %.

compound	viability, %
CC(C)C[C@@H](NC(=O)[C@H](C)NC(=O)CNC(=O)[C@@H](NC=O)C(C)C)C(=O)N[C@@H](C)C(=O)N[C@@H](C(=O)N[C@H](C(=O)N[C@@H](C(=O)N[C@@H](Cc1c[nH]c2ccccc12)C(=O)N[C@H](CC(C)C)C(=O)N[C@@H](Cc1c[nH]c2ccccc12)C(=O)N[C@@H](C(=O)N[C@@H](Cc1c[nH]c2ccccc12)C(=O)N[C@@H](C(=O)N[C@@H](Cc1c[nH]c2ccccc12)C(=O)NCCO)[C@H](C)O)C(C)C)C(C)C)C(C)C)C(C)C [compound 7010] (For-VGA[dL]A[dV]V[dV]W[dL]W[dV]W[dT]W-NHCH2CH2OH)	100

Now turn to the next compound.
*Q* Looking for the measured viability of CC(C)C[C@@H](NC(=O)[C@H](C)NC(=O)CNC(=O)[C@@H](NC=O)C(C)C)C(=O)N[C@@H](C)C(=O)N[C@H](CC(C)C)C(=O)N[C@H](C(=O)N[C@H](CC(C)C)C(=O)N[C@@H](Cc1c[nH]c2ccccc12)C(=O)N[C@H](CC(C)C)C(=O)N[C@@H](Cc1c[nH]c2ccccc12)C(=O)N[C@@H](C(=O)N[C@@H](Cc1c[nH]c2ccccc12)C(=O)N[C@@H](C(=O)N[C@@H](Cc1c[nH]c2ccccc12)C(=O)NCCO)[C@H](C)O)[C@H](C)O)C(C)C [compound 7156] (For-VGA[dL]A[dL]V[dL]W[dL]W[dT]W[dT]W-NHCH2CH2OH) , can you help?
*A* 100
